target.or.system: CYP2C9 (Homo sapiens)
Sequence (P11712 whole entry): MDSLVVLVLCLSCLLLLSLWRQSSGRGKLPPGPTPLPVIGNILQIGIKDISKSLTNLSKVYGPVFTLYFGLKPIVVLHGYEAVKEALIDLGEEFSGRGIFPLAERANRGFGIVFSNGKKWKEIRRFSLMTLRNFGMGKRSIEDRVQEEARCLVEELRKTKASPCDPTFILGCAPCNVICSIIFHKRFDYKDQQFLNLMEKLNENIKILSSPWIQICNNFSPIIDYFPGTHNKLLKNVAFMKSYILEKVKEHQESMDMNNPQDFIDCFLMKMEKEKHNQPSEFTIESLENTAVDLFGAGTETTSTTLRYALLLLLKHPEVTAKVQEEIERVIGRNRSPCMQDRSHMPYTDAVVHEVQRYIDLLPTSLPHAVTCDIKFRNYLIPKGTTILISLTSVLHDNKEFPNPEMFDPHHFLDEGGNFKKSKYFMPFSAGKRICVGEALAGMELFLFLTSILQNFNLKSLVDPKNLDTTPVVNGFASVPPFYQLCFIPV
procedure.summary: Kinetic properties of fluorogenic substrates with CYP 2C9
Type: biochemical
attribute.measured: type of kinetics

Completed entries (count: 4):
The recorded type of kinetics for entry COCOc1ccc2cc(C#N)c(=O)oc2c1 equals Michaelis-Menten

The recorded type of kinetics for entry COc1ccc(COc2ccc3c(C(F)(F)F)cc(=O)oc3c2)cc1 equals Michaelis-Menten

The recorded type of kinetics for entry N#Cc1cc2ccc(OCOCc3ccccc3)cc2oc1=O equals Michaelis-Menten

The recorded type of kinetics for entry COc1ccc(COc2ccc3nc4ccc(=O)cc-4oc3c2)cc1 equals Michaelis-Menten

We now examine a further compound.
The recorded type of kinetics for entry COCOc1ccc2c(C(F)(F)F)cc(=O)oc2c1 equals Michaelis-Menten

Reference source: patent US7132252B2
